EC50 values, listed per item
# subject.of.test: Voltage-dependent T-type calcium channel subunit alpha-1H (Homo sapiens)
# Sequence (O95180 whole entry): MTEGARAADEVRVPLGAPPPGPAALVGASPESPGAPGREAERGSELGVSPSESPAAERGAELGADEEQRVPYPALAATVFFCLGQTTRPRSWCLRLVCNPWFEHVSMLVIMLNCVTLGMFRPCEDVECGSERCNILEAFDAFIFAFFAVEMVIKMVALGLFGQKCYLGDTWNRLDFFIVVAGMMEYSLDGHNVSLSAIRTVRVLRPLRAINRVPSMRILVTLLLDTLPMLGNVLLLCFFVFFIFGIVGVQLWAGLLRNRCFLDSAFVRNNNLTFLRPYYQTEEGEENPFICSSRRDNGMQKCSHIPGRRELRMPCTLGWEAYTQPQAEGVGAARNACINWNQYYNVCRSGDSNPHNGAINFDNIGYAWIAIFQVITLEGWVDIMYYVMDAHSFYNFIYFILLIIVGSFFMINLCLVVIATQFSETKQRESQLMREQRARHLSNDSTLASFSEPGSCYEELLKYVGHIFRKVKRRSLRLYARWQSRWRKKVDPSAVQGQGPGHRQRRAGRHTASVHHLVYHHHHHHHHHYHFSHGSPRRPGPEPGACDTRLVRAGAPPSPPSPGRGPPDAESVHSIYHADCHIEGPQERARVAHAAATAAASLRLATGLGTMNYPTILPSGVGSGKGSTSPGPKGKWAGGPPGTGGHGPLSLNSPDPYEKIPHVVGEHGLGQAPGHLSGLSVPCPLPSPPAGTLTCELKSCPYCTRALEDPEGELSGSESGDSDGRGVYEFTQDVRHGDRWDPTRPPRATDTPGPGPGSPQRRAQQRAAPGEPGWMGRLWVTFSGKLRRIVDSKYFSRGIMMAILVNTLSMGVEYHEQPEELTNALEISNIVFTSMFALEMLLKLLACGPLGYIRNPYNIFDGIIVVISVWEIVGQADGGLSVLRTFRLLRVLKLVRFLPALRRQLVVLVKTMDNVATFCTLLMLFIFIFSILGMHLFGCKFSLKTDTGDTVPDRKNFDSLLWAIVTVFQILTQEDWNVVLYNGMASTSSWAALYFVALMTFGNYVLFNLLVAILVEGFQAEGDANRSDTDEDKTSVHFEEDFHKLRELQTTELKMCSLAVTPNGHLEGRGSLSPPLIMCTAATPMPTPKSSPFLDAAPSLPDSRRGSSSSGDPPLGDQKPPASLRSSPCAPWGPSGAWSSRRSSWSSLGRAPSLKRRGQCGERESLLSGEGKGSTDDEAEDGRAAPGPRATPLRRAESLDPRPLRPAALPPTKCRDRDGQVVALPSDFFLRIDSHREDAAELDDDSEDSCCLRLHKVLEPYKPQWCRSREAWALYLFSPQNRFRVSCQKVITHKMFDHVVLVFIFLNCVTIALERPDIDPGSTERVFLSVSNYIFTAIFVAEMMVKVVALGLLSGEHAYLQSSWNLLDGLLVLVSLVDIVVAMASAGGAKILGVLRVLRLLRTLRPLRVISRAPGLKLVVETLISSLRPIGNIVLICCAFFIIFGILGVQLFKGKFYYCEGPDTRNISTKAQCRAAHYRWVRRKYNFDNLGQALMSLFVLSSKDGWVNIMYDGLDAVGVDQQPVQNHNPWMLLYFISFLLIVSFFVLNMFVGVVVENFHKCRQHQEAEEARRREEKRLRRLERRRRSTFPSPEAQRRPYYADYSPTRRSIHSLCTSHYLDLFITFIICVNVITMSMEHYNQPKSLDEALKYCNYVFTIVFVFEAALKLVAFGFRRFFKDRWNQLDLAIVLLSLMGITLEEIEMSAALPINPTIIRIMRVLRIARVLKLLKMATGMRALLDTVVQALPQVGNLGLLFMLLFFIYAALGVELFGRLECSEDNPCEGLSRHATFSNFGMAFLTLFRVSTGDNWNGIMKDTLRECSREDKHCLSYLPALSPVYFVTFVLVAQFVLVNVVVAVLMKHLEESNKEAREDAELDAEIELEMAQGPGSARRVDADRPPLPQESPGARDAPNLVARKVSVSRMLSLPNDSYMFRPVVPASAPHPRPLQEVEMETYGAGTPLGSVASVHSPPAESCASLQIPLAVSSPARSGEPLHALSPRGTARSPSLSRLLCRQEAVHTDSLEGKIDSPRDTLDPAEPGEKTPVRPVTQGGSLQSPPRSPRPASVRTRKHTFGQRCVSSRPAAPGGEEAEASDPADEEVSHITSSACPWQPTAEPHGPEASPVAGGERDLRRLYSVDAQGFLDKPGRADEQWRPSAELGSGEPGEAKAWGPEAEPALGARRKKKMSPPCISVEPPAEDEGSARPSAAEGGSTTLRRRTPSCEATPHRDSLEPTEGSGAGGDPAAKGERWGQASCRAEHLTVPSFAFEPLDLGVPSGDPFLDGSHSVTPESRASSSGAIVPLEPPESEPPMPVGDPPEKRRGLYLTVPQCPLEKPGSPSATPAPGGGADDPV
# Type: functional
Calls of active or inactive are those of the source.

In [3]: df
Out[3]:
                                   compound        data_value
0  CSCc1nnc(NC(=O)c2ccc(S(=O)(=O)N(CC(C)C)CC(C)C)cc2)o1  3.07 µM (active)
1  CCN(CC)S(=O)(=O)c1cc(C(=O)Nc2ccc(Cl)cn2)ccc1C   2.3 µM (active)

Requested read-out EC50, target or system Voltage-dependent T-type calcium channel subunit alpha-1H (Homo sapiens), entry Cc1ccc(-n2c(Cc3cccn3C)nnc2SCC(=O)Nc2ccc3c(c2)OCO3)cc1;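 also: channel activity triggered by adding a high calcium stimulation buffer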
1.25 µM (active)

So what EC50 did c1ccc2sc(N3CN(CCN4CCOCC4)CN(c4nc5ccccc5s4)C3)nc2c1 get with Voltage-dependent T-type calcium channel subunit alpha-1H (Homo sapiens)?
5.23 µM (active)

Voltage-dependent T-type calcium channel subunit alpha-1H (Homo sapiens) / EC50 / Cc1ccc(-c2nnn(C(C)C(=O)N3c4ccccc4CCc4ccccc43)n2)cc1 (stereo not given) : value?;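 also: channel activity triggered by adding a high calcium stimulation buffer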
7.47 µM (active)

* * *

# method.summary: inhibitors of firefly luciferase expression or activity, dose response, H4 neuroglioma cells, luminescence (AID 1990)
# Format: functional, cell-based
Calls of active or inactive are those of the source.
measured.endpoint: EC50

>>> df
                                   compound        data_value
0  Cc1cccc(CS(=O)(=O)c2ncc(Cl)c(C(=O)Nc3ccc(F)cc3)n2)c1  12.2 µM (active)

Quick one: EC50 of O=C(CN1C(=O)c2ccccc2S1(=O)=O)c1ccccc1Cl ?
0.283 µM (active)

Would you mind telling me what EC50 value was observed for COc1ccccc1NC(=O)C1=C(C)Nc2nc3ccccc3n2C1c1cccs1 (configuration not stated) ?
7.89 µM (inconclusive)

// returns reported EC50 for input O=c1cc(CNc2cc(C(F)(F)F)cc(C(F)(F)F)c2)nc2sccn12
17.5 µM (active)

* * *

# subject.of.test: Carboxy-terminal domain RNA polymerase II polypeptide A small phosphatase 1 (Homo sapiens)
# Sequence (Q9GZU7 whole entry): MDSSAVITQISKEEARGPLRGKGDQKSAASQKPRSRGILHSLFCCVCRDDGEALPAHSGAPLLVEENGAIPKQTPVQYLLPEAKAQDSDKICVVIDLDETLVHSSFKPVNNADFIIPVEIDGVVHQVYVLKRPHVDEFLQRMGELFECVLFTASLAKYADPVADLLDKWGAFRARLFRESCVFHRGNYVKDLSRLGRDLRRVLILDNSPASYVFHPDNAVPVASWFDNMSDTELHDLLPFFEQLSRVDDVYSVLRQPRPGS
# method.summary: inhibitors of CTDSP1, concentration-response testing, biochemical assay, absorbance-based, actives from ultra-high-throughput screening (AID 540297)
# Assay type: functional
Calls of active or inactive are those of the source.
# output must be one of active, inactive

>>> df
                               smiles_input                           subject_of_test  discrete_label
0  N=C1/C(=C/c2ccc(Br)o2)C(=O)N=C2SC(CC(=O)N3CCCC3)=NN12  Carboxy-terminal domain RNA polymerase II polypeptide A small phosphatase 1 (Homo sapiens)        inactive
1  O=C(Cn1cnc2c(nnn2-c2cccc(Cl)c2)c1=O)NCc1ccccc1  Carboxy-terminal domain RNA polymerase II polypeptide A small phosphatase 1 (Homo sapiens)          active
2  Cc1c(CCC(=O)O)c(=O)oc2c(C)c3occ(-c4ccc(Cl)cc4)c3cc12  Carboxy-terminal domain RNA polymerase II polypeptide A small phosphatase 1 (Homo sapiens)          active

Lab log entry: O=C(O)c1ccc(Nc2nc(-c3ccc([N+](=O)[O-])cc3)nc3ccccc23)cc1 — outcome as called in the assay?
active

# outcome recorded in this test, key = C/C(=N\Nc1ccc(Cl)c(C(=O)O)c1)c1ccc[nH]1
active

Hello, I am checking results. What call was entered for O=C(N/N=C/c1sc(=O)n(Cc2ccc(Br)cc2)c1Cl)c1ccco1 ?
active

What call does the record list for O=C(CSc1nc2sc3c(c2c(=O)n1-c1ccccc1)CCCC3)N/N=C/c1ccc(C(=O)O)cc1 ?
active

* * *

# subject.of.test: Cytochrome P450 2C9 (Homo sapiens)
# Sequence (P11712 whole entry): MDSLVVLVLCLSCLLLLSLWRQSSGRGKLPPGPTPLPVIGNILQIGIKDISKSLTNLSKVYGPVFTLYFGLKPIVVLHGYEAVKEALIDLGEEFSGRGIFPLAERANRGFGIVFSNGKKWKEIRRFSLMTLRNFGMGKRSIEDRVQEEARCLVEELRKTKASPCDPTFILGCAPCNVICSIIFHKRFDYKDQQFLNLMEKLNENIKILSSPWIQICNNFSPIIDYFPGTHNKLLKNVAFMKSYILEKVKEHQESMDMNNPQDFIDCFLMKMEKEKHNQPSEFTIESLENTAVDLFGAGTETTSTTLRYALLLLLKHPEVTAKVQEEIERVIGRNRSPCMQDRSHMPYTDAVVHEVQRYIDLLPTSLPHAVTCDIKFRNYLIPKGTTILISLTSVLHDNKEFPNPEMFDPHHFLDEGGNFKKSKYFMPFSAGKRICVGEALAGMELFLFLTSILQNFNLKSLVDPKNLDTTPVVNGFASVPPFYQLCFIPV
Listing of recorded AC50 by entry.

Would you please look over these solved cases?
In [3]: df
Out[3]:
                                   compound  measured_endpoint              data_value
0  Nc1cc(O)nc(SCC(=O)Nc2ccc(S(=O)(=O)N3CCOCC3)cc2)n1               AC50    20 µM (inconclusive)
1  Cc1nn(Cc2ccc(Cl)cc2Cl)c(C)c1NC(=O)c1sc2ccccc2c1Cl               AC50  1.78 µM (inconclusive)
2  CCSc1nnc(C(N)Cc2ccccc2)o1 (stereo unspecified)               AC50  2.24 µM (inconclusive)
3  COc1ccc(NC(=O)c2cc(-c3cccnc3)nc3ccc(C)cc23)cc1OC               AC50  7.08 µM (inconclusive)
4        Clc1ccccc1CSc1nnc(/C=C/c2ccccc2)o1               AC50  7.94 µM (inconclusive)

Hello, I am looking for reported AC50 with Cytochrome P450 2C9 (Homo sapiens) for COc1cccc(-c2ccc3ncnc(NCc4cccnc4)c3c2)c1 . Could you help?
1.58 µM (inconclusive)

* * *

# System: H9c2;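 also: cell death induced by hydrogen peroxide oxidative stress; compound pretreatment for 60 min then peroxide exposure for 2 h; potency is for protecting the cells against peroxide damage rather than for killing them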;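 also: confirmatory concentration-response retest of ultra-high-throughput screening hits for modulation of myocardial damage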
# method.summary: cells
# Type: functional, cell-based
# experimental.parameters: Rattus norvegicus, H9c2, Myocardium
Calls of active or inactive are those of the source.
measured.endpoint: IC50

Consider the reported IC50 for these compounds:
In [3]: df
Out[3]:
                                   compound          data_value
0  COc1cc(-c2cnc3c(NC=O)cc(-c4ccsc4)cn23)cc(OC)c1OC  > 79 µM (inactive)
1  CC(OC(=O)Cn1[nH]c(=O)c2ccccc2c1=O)C(=O)Nc1ccccc1[N+](=O)[O-] (centres undefined)  > 79 µM (inactive)
2  CN(C)C(=O)/C=C\c1cn(-c2ccccc2)nc1-c1ccc2c(c1)OCCO2  > 79 µM (inactive)

As a next step, examine the compound that follows.
May I ask what IC50 has been recorded for CCOC(=O)C1=C(COC(=O)/C=C/c2ccc(F)cc2)NC(=O)NC1C (centres undefined) ?
> 79 µM (inactive)

* * *

Examples of compounds with documented IC50 follow.
# subject.of.test: Low molecular weight phosphotyrosine protein phosphatase (Homo sapiens, UniProt P24666)
# Sequence (P24666 whole entry): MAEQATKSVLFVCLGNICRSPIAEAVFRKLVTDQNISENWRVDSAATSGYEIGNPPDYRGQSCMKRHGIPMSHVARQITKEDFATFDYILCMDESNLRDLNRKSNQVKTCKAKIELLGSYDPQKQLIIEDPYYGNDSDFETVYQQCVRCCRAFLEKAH
# Format: functional
# experimental.parameters: read-out: IC50_Mean
Calls of active or inactive are those of the source.

                                   compound  measured_endpoint        data_value
0  O=C(O)c1ccc(Nc2nc(-c3ccc([N+](=O)[O-])cc3)nc3ccccc23)cc1               IC50  10.9 µM (active)

Entry C/C(=N\NS(=O)(=O)c1ccc(Cl)c([N+](=O)[O-])c1)c1cc2ccccc2o1 has what IC50?
80 µM (inactive)

I would be grateful if you could share the reported IC50 for Cc1c(CCC(=O)O)c(=O)oc2c(C)c3occ(-c4ccc(Cl)cc4)c3cc12 .
8.61 µM (active)

What value of IC50 has been reported for the following compound? CCOC(=O)C1=C(C)N=c2sc(=Cc3ccc(OCC(=O)O)cc3)c(=O)n2C1c1ccc(SC)cc1 (centres undefined)
14.6 µM (active)

* * *

# subject.of.test: RNA-binding protein pos-1 (Caenorhabditis elegans, UniProt G5EF15)
# Sequence (G5EF15 whole entry, the tested form may be a part): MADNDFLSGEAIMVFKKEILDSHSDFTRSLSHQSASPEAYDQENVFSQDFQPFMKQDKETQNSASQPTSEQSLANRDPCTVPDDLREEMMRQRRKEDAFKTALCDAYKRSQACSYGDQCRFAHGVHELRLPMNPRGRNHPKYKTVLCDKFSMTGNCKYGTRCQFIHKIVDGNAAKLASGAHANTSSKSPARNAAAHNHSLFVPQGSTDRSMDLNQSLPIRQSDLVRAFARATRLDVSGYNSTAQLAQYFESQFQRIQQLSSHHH
# method.summary: inhibitors of POS-1/mex-3 RNA binding, dose response, biochemical, fluorescence polarization (AID 1964);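 also: purified POS-1 fused to maltose binding protein made in E. coli; potency of compounds blocking POS-1 binding to fluorescent RNA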
The source made the active and inactive calls.
measured.endpoint: EC50

// lookup EC50 for CCOc1ccc(N2C(=O)S/C(=C\c3cccn3C)C2=O)cc1
> 300 µM (inconclusive)

Name the recorded EC50 for Cc1nc2ccccc2c(=O)n1/N=C/c1ccc(O)c(O)c1O .
12.9 µM (active)

Data request, read-out EC50, for CCOC(=O)c1cnc2nc(C)ccc2c1O
13.7 µM (inconclusive)

* * *

# Test system: INS1
# method.summary: beta cell apoptosis inhibitors, cytokine rescue, dose response, luminescence, retest (AID 449756);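 also: cell death triggered by IL-1 beta plus TNF-alpha plus IFN-gamma mixture; protective hits raise ATP signal compared with cytokine alone wells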
# Type: functional, cell-based
# experimental.parameters: Rattus norvegicus
The source made the active and inactive calls.
measured.endpoint: AC50

Please review the entries below; each comes with its answer.
>>> df
                                   molecule  measured_endpoint        data_value
0  Oc1c(CN2CCN(c3ccccc3)CC2)cc(Br)c2cccnc12               AC50  2.42 µM (active)
1  CCC(C)(C)c1ccc(OCCCC[n+]2ccccc2)c(C(C)(C)CC)c1               AC50     2 µM (active)
2           COC(=O)c1ccc(NC(=O)c2cccnc2)cc1               AC50  5.28 µM (active)

Dear colleague, I am looking for the recorded AC50 of the following molecule: Cn1cccc1C1C=C(c2ccc(C(C)(C)C)cc2)Nc2ncnn21 (centres undefined)
3.45 µM (active)
